Just for reference, PubChem BioAssay AID179 is where these values come from.

- Test system: CEM cells HIV-1 protection, formazan growth assay
- procedureDetails: NCI AIDS Antiviral Assay
- testParameters: measured here: growth of uninfected CEM cells
endpointName: pIC50
pIC50 (log units): -log10 of the concentration in mol/L.

Use the examples below as a reference point.
compound	measuredTarget	endpointName	readoutNumber
CC(C)[C@@H]1CC[C@]2(COC(=O)CC(C)(C)CC(=O)O)CC[C@]3(C)[C@H](CC[C@@H]4[C@@]5(C)CC[C@H](OC(=O)CC(C)(C)CC(=O)O)C(C)(C)[C@@H]5CC[C@]43C)[C@@H]12	CEM cells HIV-1 protection, formazan growth assay	pIC50	5.01
CN(C)CCC=C1c2ccccc2CCc2ccccc21	CEM cells HIV-1 protection, formazan growth assay	pIC50	4.46
Cc1ccc(S(=O)(=O)N/N=C2/CC[C@H](C(C)(C)C)C[C@@H]2C)cc1	CEM cells HIV-1 protection, formazan growth assay	pIC50	4.66
C=C1C(C)C2C(Cc3ccccc3)NC(=O)C23C(OC(C)=O)/C=C/C(C)(O)CC(C)C/C=C/C3C1O (centres undefined)	CEM cells HIV-1 protection, formazan growth assay	pIC50	7.01
Cc1ccc(-n2c(=S)n(-c3ccccc3C)c3nc4ccccc4nc2/c3=N\Nc2ccccc2)cc1	CEM cells HIV-1 protection, formazan growth assay	pIC50	3.91
NCCOc1c2occc2cc2ccc(=O)oc12	CEM cells HIV-1 protection, formazan growth assay	pIC50	4.69
COC1(OC)C(N(C)C)=C(Cl)C(=O)/C1=C/C=O	CEM cells HIV-1 protection, formazan growth assay	pIC50	4.14
CN(C)CCNC(=O)c1ccccc1Nc1c(Cl)cccc1Cl	CEM cells HIV-1 protection, formazan growth assay	pIC50	4.40

**Query** Need pIC50, item C[C@@H]1C[C@H]2[C@@H]3C[C@H](F)C4=CC(=O)C=C[C@]4(C)[C@@]3(F)[C@@H](O)C[C@]2(C)C1C(=O)COC(=O)c1cccc2c(=O)c3ccccc3[nH]c12 (some centres undefined)
**Result** 5.70

**Query** What about this compound? S=c1ncc2c([nH]1)C1c3ccccc3C2c2ccccc21
**Result** 3.92

----------
The following compounds are shown together with reported pEC50 values.
- System: CEM cells HIV-1 protection, formazan growth assay
- procedureDetails: NCI AIDS Antiviral Assay
pEC50: −log10 of the molar value.

compound	endpointName	result
C[C@H](CCC(=O)O)[C@H]1CC[C@H]2[C@@H]3[C@H](O)[C@H](O)[C@@H]4C[C@H](O)CC[C@]4(C)[C@H]3CC[C@]12C	pEC50	< 3.70
Cc1cccc2c(NCCC[N+](C)(C)[O-])c3c([N+](=O)[O-])ccc(C)c3nc12	pEC50	< 4.00
OCCN1c2ccccc2Sc2ccc(Cl)cc21	pEC50	< 3.70
CC1(C)CNC[C@@]2(C)OCCOCCOCCO[C@@]3(C)CNCC(C)(C)NC(=O)[C@](C)(CNCC(C)(C)NC3=O)OCCOCCOCCO[C@](C)(CNCC(C)(C)NC2=O)C(=O)N1	pEC50	< 3.70
CCC1=CC(OCc2ccccc2)C(CCN(Cc2ccccc2)C(=O)OCc2ccccc2)C1 (centres undefined)	pEC50	< 3.70
CCN(CC(O)COc1ccc2c(c1)[n+]([O-])nc(N)[n+]2[O-])C(C)=O (centres undefined)	pEC50	< 3.70

**Query** API: value(readout=pEC50, system=CEM cells HIV-1 protection, formazan growth assay) for record CC(=O)OC1(c2ccccc2)OC(=O)C(C)(C)c2ccccc21 (centres undefined)
**Result** < 3.80

**Query** Entry to check: O=C1c2cc3c(cc2CC12Cc1cc4c(cc1C2=O)CCC4)CCCC3 (centres undefined)
**Result** < 3.70

**Query** Same for CCC(=O)N(c1ccccc1)C(C)CN1CCC(O)(c2ccccc2)CC1 (centres undefined)
**Result** < 3.70

----------
- Tested on: CEM cells HIV-1 protection, formazan growth assay
- procedureDetails: NCI AIDS Antiviral Assay
- testParameters: measured here: growth of uninfected CEM cells
Catalogue of IC50 readings, one per entry.
Report only the number, with the unit µM understood.

Below: 2 compounds and their reported IC50.
compound	measuredTarget	IC50 [µM]
C=CCn1c(-c2ccc([N+](=O)[O-])cc2)csc1=N	CEM cells HIV-1 protection, formazan growth assay	26.3
CC(C)C(/C=C/c1ccc(Cl)cc1)=N\NC(=S)NN	CEM cells HIV-1 protection, formazan growth assay	12

**Query** Given CCOC(=O)C12CCC(c3c(C)cccc3C)(O1)C(C(=O)OC)=C2C(=O)OC (configuration not stated) , state its recorded IC50.
**Result** 107

----------
- Tested on: CEM cells HIV-1 protection, formazan growth assay
- procedureDetails: NCI AIDS Antiviral Assay
- testParameters: measured here: growth of uninfected CEM cells
endpointName: IC50 (µM)
Your answer is read as µM, so omit the unit and give the number.

smilesCode	IC50 (µM)
CC(=O)c1cc(-c2ccccn2)c(=O)n2ccccc12	112

**Query** Quick check: IC50 of CCCCCCCN=c1ssc(=O)n1CCCCCCC ?
**Result** 8.91

----------
- Tested on: CEM cells HIV-1 protection, formazan growth assay
- procedureDetails: NCI AIDS Antiviral Assay
- testParameters: measured here: growth of uninfected CEM cells
pIC50: −log10 of the molar value.
// false (0) strictly below 4 in pIC50; true (1) otherwise

These solved cases illustrate the format of a correct answer.
compound	label
CC(CC[C@@H](O)C(C)(C)O)C1[C@@H](O)CC2(C)C3CC(O)C4C(C)(C)[C@@H](OC5OC(CO)C(O)C(O)C5O)CC[C@@]45C[C@@]35CC[C@]12C (some centres undefined)	false (0)
C=C1CC(c2ccc(OCCCN3C(=O)c4ccccc4C3=O)cc2)OC1=O (centres undefined)	true (1)
O=C(CCCN1CCC2(CC1)NC(=O)c1ccccc1O2)c1ccc(F)cc1	false (0)
CN(C)N=Nc1cccc(C(N)=O)c1	false (0)
Cc1cc2c(C(C)C)c(O)c(O)c(C=Nc3ccc(Cl)cc3)c2c(O)c1-c1c(C)cc2c(C(C)C)c(O)c(O)c(C=Nc3ccc(Cl)cc3)c2c1O	true (1)
O=C1OC(c2ccccc2)(c2ccccc2)C(=O)OC1(c1ccccc1)c1ccccc1	false (0)

Now turn to the next compound.
**Query** Form field: pIC50 at least 4? Entry: COc1ccc(NC(=O)CC(=O)n2nc(C)c(N=Nc3ccc(C)c(C)c3)c2C)cc1
**Result** false (0)

----------
- Tested on: CEM cells HIV-1 protection, formazan growth assay
- procedureDetails: NCI AIDS Antiviral Assay
- testParameters: measured here: growth of uninfected CEM cells
Each entry below carries its recorded pIC50.
The meaning of pIC50 here: minus log10 of the concentration in molar units.

molecule	pIC50
CSC1=N/C(=C\c2ccccc2)C(=O)N1CN1CCOCC1	4.06
CC(Nc1cccc(Cl)c1)c1ccncc1 (configuration not stated)	4.02
COc1ccccc1/C=C1\Sc2scc(-c3ccc(O)c(O)c3)[n+]2C1=O	5.41
O=[N+]([O-])c1ccccc1NC1CCN(CCCC2(c3ccc(F)cc3)OCCO2)CC1	4.89
CN(C)c1ccc(/C=C/C=C(/C#N)c2ccccc2)cc1	4.91

**Query** Suppose we examine the molecule CCCCCC/C=C\CCCCCCCCCc1cc(O)cc(OC)c1O ; what pIC50 value has been reported?
**Result** 5.30

**Query** Another molecule: O=C1C(=O)C(CN2CCOCC2)=C(N2CCOCC2)C(N2CCOCC2)=C1CN1CCOCC1
**Result** 4.11

----------
- Tested on: CEM cells HIV-1 protection, formazan growth assay
- procedureDetails: NCI AIDS Antiviral Assay
- testParameters: measured here: growth of uninfected CEM cells
endpointName: pIC50
Keep in mind that pIC50 stands for -log10 of concentration in molar terms.

compound	pIC50
C=Cc1cc[n+](CCCCCCCCCCCC)cc1	3.99
CC(C)(CN1CCCCC1)C(=O)/C=C/c1ccc(Cl)cc1	5.10

**Query** Value lookup for pIC50; key = CC(=O)OCC1OC(n2c(=S)[nH]c(-c3ccccc3)c(C#N)c2=O)C(OC(C)=O)C(OC(C)=O)C1OC(C)=O (stereo unspecified)
**Result** 3.77

**Query** Entry to check: Oc1c(C(O)N2CCOCC2)cc(C(O)N2CCOCC2)c(O)c1O (stereo unspecified) (tested in a mixture with another compound)
**Result** 5.72

----------
- System: CEM cells HIV-1 protection, formazan growth assay
- procedureDetails: NCI AIDS Antiviral Assay
- testParameters: measured here: growth of uninfected CEM cells
Where a SMILES comes first, the peptide text is derived from it.
In this section we review reported IC50 values for a set of compounds.

compound	result
COc1c(C)c(O)c2c(=O)cc(-c3ccccc3)oc2c1C	> 63.1 µM

**Query** Which IC50 value is on record for C/C=C/C1C=Cc2ccccc2C1(C)C1=NC(C)(C)CO1 (configuration not stated) ?
**Result** > 25.7 µM

**Query** Now try O=C(O)c1cc(S(=O)(=O)Nc2cc(Cc3cc(NS(=O)(=O)c4ccc(O)c(C(=O)O)c4)c(O)c(C(=O)O)c3)cc(C(=O)O)c2O)ccc1O .
**Result** > 100 µM

**Query** Next: C=CCn1c(N)c(N=O)c(=O)n(CC)c1=O
**Result** > 200 µM

**Query** Then what about the compound CC(C)C(=O)C(C)(C)C(=O)C(C)(C)C(=O)OC(C)(C)C ?
**Result** > 200 µM

**Query** Subsequent entry: COc1ccc2nc3ccccc3c(NCCCN(C)C)c2c1[N+](=O)[O-]
**Result** 0.589 µM

**Query** # repeat for CCCCCCCC(=O)OCC1OC(n2cc(F)c(=O)[nH]c2=O)C(NC(=O)OCc2ccccc2)C(OC(=O)CCCCCCC)C1O (configuration not stated)
**Result** > 10.7 µM

**Query** Quick one: CC(C)(N)Cc1ccccc1Cl
**Result** > 200 µM

**Query** Note, next up: O=S(=O)(O)c1ccc(O)c(N=Nc2ccc(/C=C/c3ccc(N=Nc4cc(S(=O)(=O)O)ccc4O)cc3S(=O)(=O)O)c(S(=O)(=O)O)c2)c1
**Result** 126 µM

**Query** // same read-out, input: N#C/C(=C\c1ccco1)C(N)=O
**Result** > 200 µM

**Query** Next compound up: C=CCc1cc(OC)c(O)c(C(=O)/C=C/c2ccc(OC)c(OC)c2)c1
**Result** > 14.8 µM

**Query** Please do the same for ClCC1(CCl)COC1 as well.
**Result** > 1620 µM

**Query** Ok, now Cn1nc(Cc2ccc(Cl)cc2)n(N)c1=O
**Result** > 200 µM

**Query** Try NC(=O)C1CCCN1C(=O)C(N)Cc1ccccc1 (stereo not drawn) (H-Phe-Pro-NH2; configuration not given here) next.
**Result** > 200 µM

**Query** What about this compound? Cc1ccc(NC(Nc2ccc(C)cc2C)=C(C(Cl)=C(Cl)Cl)[N+](=O)[O-])c(C)c1
**Result** 7.94 µM

**Query** Input CC1(C)OC2OC(C(O)COC(=O)c3ccccc3)C(F)C2O1 (configuration not stated)
**Result** > 209 µM

**Query** // repeat for Cc1cc(=O)oc2c(O)c(O)ccc12 and report
**Result** 141 µM

**Query** Entry to check: Cn1c(=O)c2nc(NCc3ccccc3)sc2n(C)c1=O
**Result** > 61.7 µM

**Query** Next entry: C=CCP(=O)(c1ccccc1)c1ccccc1
**Result** > 200 µM
